Sourced from the supplement of paper PMC8975748

Assignment: determine reported z-score of subpopulation abundance for the given compounds.
Tested on: Saccharomyces cerevisiae BY4741 SeMeCo community
assay-method-text: z-score of subpopulation abundance vs DMSO median, subpopulation auxotrophic for UM; higher = larger share of this subpopulation than in DMSO controls
assay-setup: 10 µM; 24 h; SM minimal medium; subpopulation (auxotrophy): UM
Where a name gives a salt, the structure may show the parent alone.
The answer should be a number; do not append a unit.

GET /values?readout=z-score of subpopulation abundance&item= COCCOC(=O)C1=C(C)NC(C)=C(C(=O)OC(C)C)C1c1cccc([N+](=O)[O-])c1 (stereo not drawn) [Nimodipine]
0.69

Given the compound CCN(CC)C(=O)[C@@]1(c2ccccc2)C[C@H]1CN [Levomilnacipran Hydrochloride] , what is its reported z-score of subpopulation abundance?
0.93

Please look up its z-score of subpopulation abundance: CO[C@H]1C[C@@H]2CC[C@@H](C)[C@@](O)(O2)C(=O)C(=O)N2CCCC[C@H]2C(=O)O[C@H]([C@H](C)C[C@@H]2CC[C@@H](O)[C@H](OC)C2)CC(=O)[C@H](C)/C=C(\C)[C@@H](O)[C@@H](OC)C(=O)[C@H](C)C[C@H](C)/C=C/C=C/C=C/1C [Rapamycin (Sirolimus)]
13.7

====

Tested on: Saccharomyces cerevisiae BY4741 SeMeCo community
assay-method-text: z-score of subpopulation abundance vs DMSO median, subpopulation auxotrophic for M; higher = larger share of this subpopulation than in DMSO controls
assay-setup: 10 µM; 24 h; SM minimal medium; subpopulation (auxotrophy): M
Structures can show the parent of a compound that is named as a salt.
parameter: z-score of subpopulation abundance
Give the value as a plain number.

Consider the compound shown here: Cc1onc(-c2ccccc2)c1C(=O)N[C@@H]1C(=O)N2[C@@H]1SC(C)(C)[C@@H]2C(=O)O [Oxacillin sodium monohydrate] What is its recorded z-score of subpopulation abundance?
0.02

Recorded z-score of subpopulation abundance for CCOC(=O)c1c(CSc2ccccc2)n(C)c2cc(Br)c(O)c(CN(C)C)c12 [Arbidol HCl] , please?
0.41

Look up z-score of subpopulation abundance: `C(=C\c1ccccc1)/CN1CCN(C(c2ccccc2)c2ccccc2)CC1`
-1.68

Can you share its z-score of subpopulation abundance? I mean this compound: CN(C)CCC=C1c2ccccc2C(C)(C)c2ccccc21 [Melitracen hydrochloride]
-0.28

What value of z-score of subpopulation abundance has been reported for the following compound? CC[C@H](C)C(=O)O[C@H]1C[C@H](O)C=C2C=C[C@H](C)[C@H](CC[C@@H](O)C[C@@H](O)CC(=O)O)[C@H]21 [Pravastatin]
0.52

Look up z-score of subpopulation abundance: `CO[C@H]1C[C@@H]2CC[C@@H](C)[C@@](O)(O2)C(=O)C(=O)N2CCCC[C@H]2C(=O)O[C@H]([C@H](C)C[C@@H]2CC[C@@H](OC(=O)C(C)(CO)CO)[C@H](OC)C2)CC(=O)[C@H](C)/C=C(\C)[C@@H](O)[C@@H](OC)C(=O)[C@H](C)C[C@H](C)/C=C/C=C/C=C/1C`
-1.76

Look up z-score of subpopulation abundance for this compound: CC(C)(C)C(=O)C(Oc1ccc(Cl)cc1)n1ccnc1 (configuration not stated)
7.09

====

System: Saccharomyces cerevisiae BY4741 SeMeCo community
assay-method-text: z-score of prototroph abundance vs DMSO median; higher = larger share of this subpopulation than in DMSO controls
assay-setup: 10 µM; 24 h; SM minimal medium; subpopulation (auxotrophy): Prototroph
Where a name gives a salt, the structure may show the parent alone.
parameter: z-score of prototroph abundance
Lab note: write the figure by itself, no unit.

Sample COc1cccc(-c2c(C)n(Cc3c(F)cccc3C(F)(F)F)c(=O)n(C[C@H](NCCCC(=O)O)c3ccccc3)c2=O)c1F [Elagolix Sodium] — what was its z-score of prototroph abundance?
0.61

Dear colleague, I am looking for the recorded z-score of prototroph abundance of the following molecule: `COc1ccc2c(c1)c(CC(=O)O)c(C)n2C(=O)c1ccc(Cl)cc1`
0.27

Would you kindly share the measured z-score of prototroph abundance for CCOc1cc(N)c([N+](=O)[O-])cc1C(=O)NC1CCN(CC2CC=CCC2)CC1 (stereo not given) [Cinitapride Hydrogen Tartrate] ?
-1.19

Find the recorded z-score of prototroph abundance belonging to `Cc1ccc(-c2ncc(Cl)cc2-c2ccc(S(C)(=O)=O)cc2)cn1` and report it.
-0.04

Sample CCN(CC)CCOc1ccc(C(=C(Cl)c2ccccc2)c2ccccc2)cc1 [Clomifene citrate] — what was its z-score of prototroph abundance?
-1.75

# z-score of prototroph abundance lookup, item `O=c1[nH]cc(F)c(=O)[nH]1`
-10.5

So what's the measured z-score of prototroph abundance for this one? `O=S1(=O)CCN(CN2CCS(=O)(=O)NC2)CN1`
0.42

# query: z-score of prototroph abundance of entry CN(C)CCCN1c2ccccc2Sc2ccc(Cl)cc21 [Chlorpromazine HCl]
-0.29

Which measured z-score of prototroph abundance value corresponds to O=C(Nc1ccc(Oc2ccc(Cl)cc2)c(Cl)c1)c1cc(I)cc(I)c1O [Rafoxanide] ?
0.24

What value of z-score of prototroph abundance has been recorded for this entry: CCC(=O)NS(=O)(=O)c1ccc(-c2c(-c3ccccc3)noc2C)cc1 [Parecoxib]
-0.12

Given `O=C1Nc2ccccc2C1=O` , state its recorded z-score of prototroph abundance.
-0.13

Which z-score of prototroph abundance value belongs to COc1ccnc(C[S+]([O-])c2nc3cc(OC(F)F)ccc3[nH]2)c1OC (stereo not given) [Pantoprazole sodium] ?
-0.43

What does the data say about its z-score of prototroph abundance? Entry: CN(C)CCC=C1c2ccccc2C(C)(C)c2ccccc21 [Melitracen hydrochloride]
1

Which z-score of prototroph abundance value belongs to CCN1CCCC1CNC(=O)c1cc(S(N)(=O)=O)ccc1OC (stereo not given) [Sulpiride] ?
0.51

Any idea what its z-score of prototroph abundance is? The molecule is Cc1[nH]cnc1CN1CCc2c(c3ccccc3n2C)C1=O [Alosetron Hydrochloride]
-0.91

// query z-score of prototroph abundance value for entry CN1C2CCCC1CC(NC(=O)c1nn(C)c3ccccc13)C2 (stereo not given) [Granisetron HCl]
-0.01

Quick one: z-score of prototroph abundance for `Cc1cc(C)nc(NS(=O)(=O)c2ccc(N)cc2)n1` ?
0

State the recorded z-score of prototroph abundance for this entry: `O=C(CCCN1CC=C(n2c(=O)[nH]c3ccccc32)CC1)c1ccc(F)cc1`
-0.55

Entry `C/C=C\c1ccc(O)c(OC)c1` has what z-score of prototroph abundance?
-0.36

What z-score of prototroph abundance value was documented for this molecule, `Oc1c(I)cc(Cl)c2cccnc12` ?
-17.7

Would you mind telling me what z-score of prototroph abundance value was observed for CCn1cc(C(=O)O)c(=O)c2cc(F)c(N3CCNC(C)C3)c(F)c21 (stereo not given) [Lomefloxacin HCl] ?
-1.02

So what does the record say about z-score of prototroph abundance for O=C(Nc1cc(Cl)cc(Cl)c1O)c1c(O)c(Cl)cc(Cl)c1Cl [Oxyclozanide] ?
2.11

Given COc1ccc(C[C@H](N)C(=O)N[C@H]2[C@@H](O)[C@H](n3cnc4c(N(C)C)ncnc43)O[C@@H]2CO)cc1 [Puromycin 2HCl] , state its recorded z-score of prototroph abundance.
-0.54

Requested field: z-score of prototroph abundance. Item: CN(C)c1cc(NC(=O)CNC(C)(C)C)c(O)c2c1CC1CC3C(N(C)C)C(=O)C(C(N)=O)=C(O)C3(O)C(=O)C1=C2O (stereo not given)
0.44

Entry N#Cc1ccc2[nH]cc(CCCCN3CCN(c4ccc5oc(C(N)=O)cc5c4)CC3)c2c1 [Vilazodone] has what z-score of prototroph abundance?
0.6

Could you share which z-score of prototroph abundance value was measured for Cc1cccc(C)c1OCC(C)N (stereo not given) [Mexiletine HCl] ?
0.5

Tell me the measured z-score of prototroph abundance of CC(C[N+](C)(C)C)OC(N)=O (stereo not given) [Bethanechol chloride] , please.
-0.22

Field request: z-score of prototroph abundance | item: O=C1C(CC[S+]([O-])c2ccccc2)C(=O)N(c2ccccc2)N1c1ccccc1 (racemic) [(+/-)-Sulfinpyrazone]
0.12

What z-score of prototroph abundance value was documented for this molecule, `O=C(O)C[C@H](O)C[C@H](O)/C=C/c1c(C2CC2)nc2ccccc2c1-c1ccc(F)cc1` ?
-2.8

Suppose we examine the molecule COc1ccc([C@@H]2Sc3ccccc3N(CCN(C)C)C(=O)[C@@H]2OC(C)=O)cc1 [Diltiazem HCl] ; what z-score of prototroph abundance value has been reported?
0.76

So what's the measured z-score of prototroph abundance for this one? CC(C(=O)O)c1ccc2c(c1)[nH]c1ccc(Cl)cc12 (stereo not given)
3.42

Which z-score of prototroph abundance is listed for Nc1ccc2cc3ccc(N)cc3nc2c1 [Proflavine Hemisulfate] ?
5.49

Which value of z-score of prototroph abundance has been reported for CO/N=C(\C(=O)N[C@@H]1C(=O)N2C(C(=O)O)=CCS[C@H]12)c1csc(N)n1 [Ceftizoxime sodium] in the records?
0.46

Recorded z-score of prototroph abundance of CN1[C@@H]2CC[C@H]1C[C@@H](OC(c1ccccc1)c1ccccc1)C2 [Benztropine mesylate] , please.
1.01

Can you share its z-score of prototroph abundance? I mean this molecule: `COC(=O)Nc1nc2cc(C(=O)c3ccccc3)ccc2[nH]1`
-1.69
